Test system: Calpain activity in SH-SY5Y cells
Experiment: SH-SY5Y + AMC fluorescence assay (Suc-LLVY-AMC substrate)
Format: cell-based
Conditions: read-out: SH-SY5Y + AMC IC50
pIC50: −log10 of the molar value.
Measured pIC50 values are reported for all entries that follow.
PROPERTY: pIC50

INSERT INTO assay_data (compound, target_entity, property, measured) VALUES
  ('O=C(NC1CC1)C(=O)C(Cc1ccccc1)NC(=O)c1cc(Cl)nn1-c1ncccn1 (stereo not shown)', 'Calpain activity in SH-SY5Y cells', 'pIC50', '> 5.00'),
  ('Cn1cc(C(=O)NC(Cc2ccccc2)C(=O)C(N)=O)c(-c2cccc(F)c2C(F)(F)F)n1 (stereo not shown)', 'Calpain activity in SH-SY5Y cells', 'pIC50', '> 5.00'),
  ('NC(=O)C(=O)C(Cc1ccccc1)NC(=O)c1cn(C(F)F)nc1-c1ccc2cccnc2c1 (stereo not shown)', 'Calpain activity in SH-SY5Y cells', 'pIC50', '< 4.60'),
  ('NC(=O)C(=O)C(Cc1ccccc1)NC(=O)c1nsnc1-c1ccccn1 (stereo not shown)', 'Calpain activity in SH-SY5Y cells', 'pIC50', '> 5.00'),
  ('Cn1cc(C(=O)NC(Cc2ccccc2)C(=O)C(N)=O)c(-c2c(F)cccc2F)n1 (stereo not shown)', 'Calpain activity in SH-SY5Y cells', 'pIC50', '> 5.00'),
  ('NC(=O)C(=O)C(Cc1ccccc1)NC(=O)c1nsnc1-c1cnccn1 (stereo not shown)', 'Calpain activity in SH-SY5Y cells', 'pIC50', '> 5.00'),
  ('COCCOCCOc1cccc(-n2nc(C)cc2C(=O)NC(Cc2ccccc2)C(=O)C(N)=O)c1 (stereo not shown)', 'Calpain activity in SH-SY5Y cells', 'pIC50', '> 5.00'),
  ('COc1cccc(-c2oncc2C(=O)NC(Cc2ccccc2)C(=O)C(N)=O)c1F (stereo not shown)', 'Calpain activity in SH-SY5Y cells', 'pIC50', '< 4.60'),
  ('Cc1cc(F)cc(-c2nn(C(F)F)cc2C(=O)NC(Cc2ccccc2)C(=O)C(N)=O)c1 (stereo not shown)', 'Calpain activity in SH-SY5Y cells', 'pIC50', '> 5.00'),
  ('Cn1cc(C(=O)NC(Cc2ccccc2)C(=O)C(N)=O)c(-c2cc(F)ccc2F)n1 (stereo not shown)', 'Calpain activity in SH-SY5Y cells', 'pIC50', '> 5.00'),
  ('Cn1cc(C(=O)NC(Cc2ccccc2)C(=O)C(=O)NC2CC2)c(-c2ccccc2)n1 (stereo not shown)', 'Calpain activity in SH-SY5Y cells', 'pIC50', '> 5.00'),
  ('Cc1nc(-c2ccccc2)c(C(=O)N[C@@H](Cc2ccc(O)cc2)C(=O)C(N)=O)o1', 'Calpain activity in SH-SY5Y cells', 'pIC50', '> 5.00'),
  ('Cn1cc(C(=O)N[C@@H](Cc2ccccc2)C(=O)C(=O)NCCC(N)=O)c(-c2ccccc2)n1', 'Calpain activity in SH-SY5Y cells', 'pIC50', '> 5.00'),
  ('NC(=O)C(=O)C(Cc1ccccc1)NC(=O)c1nsnc1-c1cccc(COCc2ccccc2)c1 (stereo not shown)', 'Calpain activity in SH-SY5Y cells', 'pIC50', '< 4.60'),
  ('O=C[C@H](Cc1ccccc1)NC(=O)c1cn(C2CC2)nc1-c1ccccc1', 'Calpain activity in SH-SY5Y cells', 'pIC50', '4.60 to 5.00'),
  ('Cn1cc(C(=O)NC(Cc2ccccc2)C(=O)C(N)=O)c(-c2ccccc2F)n1 (stereo not shown)', 'Calpain activity in SH-SY5Y cells', 'pIC50', '> 5.00');

Numbers sourced from patent US11339130B1.
